Recorded values, source ChEMBL document CHEMBL1201862.

system: HCC 2998; assay: NCI tumour cell line growth inhibition, 48 h
The source made the active and inactive calls. Rule as the data show it: active = GI50 up to about 1.1 µM and inactive = higher.
Assay Endpoint: GI50

Clc1ccc(C2C3COc4ccccc4C3=NN2c2ccccc2)cc1 (stereo unspecified); > 100 µM (inactive)
COC(=O)C1C(C(=O)OC)C2(OC)c3ccccc3-c3ccccc3C12 (stereo unspecified); 64.3 µM (inactive)
CCCCCC[C@@H]1CCC2C(CO)[C@@H](O)CC[C@@H]2C1 (stereo partly specified); 22 µM (inactive)

May I ask what GI50 has been recorded for CCON1CC(C(=O)OC)=C(O)C1=O ? > 100 µM (inactive)

And for COc1cc(/C=C/C(=O)C2(C(=O)/C=C/c3cc(OC)c(OC)c(OC)c3)CCCCC2)cc(OC)c1OC ? 58.6 µM (inactive)

Query CCOc1cc(NC(C)=O)ccc1C(=O)NN1C(=O)CSC1c1ccc(O)c(OC)c1 (stereo unspecified) next 32.1 µM (inactive)
